# Assayed Target: Nucleic Acid
# Procedure Details: Binding affinity to HIV1 frameshift-stimulating RNA by fluorescence titration
# Type: nucleic-acid assay, Human immunodeficiency virus 1
# Condition Set: read-out: Kd
Assay Metric: Kd (µM)

# Input Smiles, Assayed Target, Assay Metric, Measured Result
records = [
    ("CCc1nc2ccccc2cc1C(=O)N[C@@H](C/C=C\\C[C@H](NC(=O)c1cc2ccccc2nc1CC)C(=O)N1CCC[C@H]1C(=O)N[C@@H](Cc1ccccc1)C(=O)NCCCN)C(=O)N1CCC[C@H]1C(=O)N[C@@H](Cc1ccccc1)C(=O)NCCCN", "Nucleic Acid", "Kd", 0.18),
    ("CCc1nc2ccccc2cc1C(=O)N[C@@H](C/C=C/C[C@H](NC(=O)c1cc2ccccc2nc1CC)C(=O)N1CCC[C@H]1C(=O)N[C@@H](Cc1ccccc1)C(=O)NCCCN)C(=O)N1CCC[C@H]1C(=O)N[C@@H](Cc1ccccc1)C(=O)NCCCN", "Nucleic Acid", "Kd", 0.33),
    ("CCc1nc2ccccc2cc1C(=O)N[C@@H](CSSC[C@H](NC(=O)c1cc2ccccc2nc1CC)C(=O)N1CCC[C@H]1C(=O)N[C@@H](Cc1ccccc1)C(=O)NCCCN)C(=O)N1CCC[C@H]1C(=O)N[C@@H](Cc1ccccc1)C(=O)NCCCN", "Nucleic Acid", "Kd", 0.35),
    ("CCc1nc2ccccc2cc1C(=O)O", "Nucleic Acid", "Kd", 0.29),
    ("NCCCNC(=O)[C@H](Cc1ccccc1)NC(=O)[C@@H]1CCCN1C(=O)[C@H](CSSC[C@H](NC(=O)c1cnc2ccccc2c1)C(=O)N1CCC[C@H]1C(=O)N[C@@H](Cc1ccccc1)C(=O)NCCCN)NC(=O)c1cnc2ccccc2c1", "Nucleic Acid", "Kd", 0.65),
]

[I] C=CC[C@H](NC(=O)c1cc2ccccc2nc1CC)C(=O)N1CCC[C@H]1C(=O)N[C@@H](Cc1ccccc1)C(=O)NCCCN
[II] CCc1nc2ccccc2cc1C(=O)N[C@@H](CCCC[C@H](NC(=O)c1cc2ccccc2nc1CC)C(=O)N1CCC[C@H]1C(=O)N[C@@H](Cc1ccccc1)C(=O)NCCCN)C(=O)N1CCC[C@H]1C(=O)N[C@@H](Cc1ccccc1)C(=O)NCCCN
[III] NCCCNC(=O)[C@H](Cc1ccccc1)NC(=O)[C@@H]1CCCN1C(=O)[C@H](CSSC[C@H](NC(=O)c1ccc2c(c1)C(=O)c1ccccc1C2=O)C(=O)N1CCC[C@H]1C(=O)N[C@@H](Cc1ccccc1)C(=O)NCCCN)NC(=O)c1ccc2c(c1)C(=O)c1ccccc1C2=O
Order the items by recorded Kd; the first position goes to the largest value. Output the labels ranked as instructed. II, I, III
(II: 1.27 µM, I: 0.47 µM, III: 0.23 µM)
